- assay target: T1, PUF4 RNA-binding domain (Saccharomyces cerevisiae, UniProt P25339 537-888)
- T1 sequence: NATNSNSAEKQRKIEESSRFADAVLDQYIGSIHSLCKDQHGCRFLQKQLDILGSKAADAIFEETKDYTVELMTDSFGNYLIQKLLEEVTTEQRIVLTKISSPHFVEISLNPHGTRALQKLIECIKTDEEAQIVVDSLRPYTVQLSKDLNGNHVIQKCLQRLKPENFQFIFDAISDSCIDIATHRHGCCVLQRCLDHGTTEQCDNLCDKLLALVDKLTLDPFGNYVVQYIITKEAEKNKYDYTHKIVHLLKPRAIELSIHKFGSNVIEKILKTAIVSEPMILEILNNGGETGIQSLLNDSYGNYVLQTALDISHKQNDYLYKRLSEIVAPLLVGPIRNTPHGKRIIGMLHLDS
- assay procedure: Mg; RNA-MaP; 20 mM Na-HEPES pH 7.4, 30 mM KOAc, 0.75 mM MgCl2, 0.1% Tween-20, 5% glycerol, 0.1 mg/mL BSA, 2 mM DTT; 25 C; 0.0125-409.6 nM protein
- condition details: tags: N-His6-TEV cleaved; C-SNAP kept, Cy3B-labelled; label: tethered on chip by stalled RNA polymerase
Could you please report measured Kd for the items listed next?
Write the number in nM without appending the unit.

IN: What value of measured Kd is listed for UCUCUUCUUGUAUAUACGUCUCUU (ssRNA) [Id_ii_S1_P3E.2_K3.1_C3.2_H3.1_A3.1_F3.1_T3.2_[T9C]_[A10G]] ?
OUT: 10.9

IN: What about UCUCUUUGUAUUAUCUUAUCUCUU (ssRNA) [Ie_S1_P5E.1_K5.1_C5.1_H5.1_A5.1_[+7TC]_F5.1_T5.1] ?
OUT: 15.7

IN: What about Ie_S2_P5E.1_K5.1_C5.1_H5.1_A5.1_[+5CCCTT]_F5.1_T5.1 (ssRNA) RNA: UUUGAUUAAUAUGAUAUCGUUCUUUCUUGUAUCCCUUUAUUAUUCUUUCUCGAUAUCAUAUUAAUCUUU ?
OUT: 16.3
